# melting point listing for each entry below
measuredQuantity: melting point

INSERT INTO assay_data (compound, measuredquantity, measured) VALUES
  ('CCOC(=O)c1cn(CC)c2cc(N3CCN(C(=O)CCC(=O)O[C@@H]4O[C@@H]5O[C@@]6(C)CCC7[C@H](C)CCC([C@H]4C)[C@]75OO6)CC3)c(F)cc2c1=O (stereo partly shown)', 'melting point', '140 to 141.1 °C'),
  ('CCOC(=O)c1cn(C2CC2)c2cc(N3CCN(C(=O)CCC(=O)O[C@@H]4O[C@@H]5O[C@@]6(C)CCC7[C@H](C)CCC([C@H]4C)[C@]75OO6)CC3)c(F)cc2c1=O (stereo partly shown)', 'melting point', '115.4 to 116.2 °C'),
  ('C[C@@H]1CCC2[C@@H](C)[C@@H](CC(=O)N3CCN(c4cc5c(cc4F)c(=O)c(C(=O)O)cn5C4CC4)CC3)O[C@@H]3O[C@@]4(C)CCC1[C@@]23OO4 (stereo partly shown)', 'melting point', '123 to 124 °C'),
  ('CCCCOC(=O)c1cn(CC)c2cc(N3CCN(C(=O)CCC(=O)O[C@@H]4O[C@@H]5O[C@@]6(C)CCC7[C@H](C)CCC([C@H]4C)[C@]75OO6)CC3)c(F)cc2c1=O (stereo partly shown)', 'melting point', '155 to 156 °C'),
  ('CCCCOC(=O)c1cn(CC)c2cc(N3CCN(C(=O)C[C@H]4O[C@@H]5O[C@@]6(C)CCC7[C@H](C)CCC([C@H]4C)[C@]75OO6)CC3)c(F)cc2c1=O (stereo partly shown)', 'melting point', '151 to 152 °C'),
  ('C[C@@H]1CCC2[C@@H](C)[C@@H](CCC(=O)N3CCN(c4cc5c(cc4F)c(=O)c(C(=O)N4CCN(c6ccnc7cc(Cl)ccc67)CC4)cn5C4CC4)CC3)O[C@@H]3O[C@@]4(C)CCC1[C@@]23OO4 (stereo partly shown)', 'melting point', '115 to 116 °C'),
  ('C[C@@H]1CCC2[C@@H](C)[C@@H](CC(=O)N3CCN(c4cc5c(cc4F)c(=O)c(C(=O)N4CCN(c6ccnc7cc(Cl)ccc67)CC4)cn5C4CC4)CC3)O[C@@H]3O[C@@]4(C)CCC1[C@@]23OO4 (stereo partly shown)', 'melting point', '160.2 to 161.3 °C');

====

# melting point listing for each entry below
measuredQuantity: melting point

INSERT INTO results (compound, measured) VALUES
  ('CCCCOC(=O)c1cn(C2CC2)c2cc(N3CCN(C(=O)CCC(=O)O[C@@H]4O[C@@H]5O[C@@]6(C)CCC7[C@H](C)CCC([C@H]4C)[C@]75OO6)CC3)c(F)cc2c1=O (stereo partly shown)', '128.6 to 129.7 °C'),
  ('CCOC(=O)c1cn(CC)c2cc(N3CCN(C(=O)C[C@H]4O[C@@H]5O[C@@]6(C)CCC7[C@H](C)CCC([C@H]4C)[C@]75OO6)CC3)c(F)cc2c1=O (stereo partly shown)', '135.1 to 136 °C'),
  ('CCn1cc(C(=O)N2CCN(c3ccnc4cc(Cl)ccc34)CC2)c(=O)c2cc(F)c(N3CCN(C(=O)CCC(=O)O[C@@H]4O[C@@H]5O[C@@]6(C)CCC7[C@H](C)CCC([C@H]4C)[C@]75OO6)CC3)cc21 (stereo partly shown)', '168.7 to 169.6 °C'),
  ('CCOC(=O)c1cn(C2CC2)c2cc(N3CCN(C(=O)C[C@H]4O[C@@H]5O[C@@]6(C)CCC7[C@H](C)CCC([C@H]4C)[C@]75OO6)CC3)c(F)cc2c1=O (stereo partly shown)', '142 to 143 °C'),
  ('CCn1cc(C(=O)N2CCN(c3ccnc4cc(Cl)ccc34)CC2)c(=O)c2cc(F)c(N3CCN(C(=O)C[C@H]4O[C@@H]5O[C@@]6(C)CCC7[C@H](C)CCC([C@H]4C)[C@]75OO6)CC3)cc21 (stereo partly shown)', '173.6 to 174.5 °C'),
  ('CCCCOC(=O)c1cn(C2CC2)c2cc(N3CCN(C(=O)C[C@H]4O[C@@H]5O[C@@]6(C)CCC7[C@H](C)CCC([C@H]4C)[C@]75OO6)CC3)c(F)cc2c1=O (stereo partly shown)', '105 to 106 °C'),
  ('C[C@@H]1CCC2[C@@H](C)[C@H](OC(=O)CCC(=O)N3CCN(c4cc5c(cc4F)c(=O)c(C(=O)N4CCN(c6ccnc7cc(Cl)ccc67)CC4)cn5C4CC4)CC3)O[C@@H]3O[C@@]4(C)CCC1[C@@]23OO4 (stereo partly shown)', '157 to 158.2 °C'),
  ('C[C@@H]1CCC2[C@@H](C)[C@H](OC(=O)CCC(=O)N3CCN(c4cc5c(cc4F)c(=O)c(C(=O)O)cn5C4CC4)CC3)O[C@@H]3O[C@@]4(C)CCC1[C@@]23OO4 (stereo partly shown)', '103.4 to 104.5 °C'),
  ('CCOC(=O)c1cn(C2CC2)c2cc(N3CCN(C(=O)CC[C@H]4O[C@@H]5O[C@@]6(C)CCC7[C@H](C)CCC([C@H]4C)[C@]75OO6)CC3)c(F)cc2c1=O (stereo partly shown)', '110.4 to 111.5 °C'),
  ('C[C@@H]1CCC2[C@@H](C)[C@@H](CCC(=O)N3CCN(c4cc5c(cc4F)c(=O)c(C(=O)O)cn5C4CC4)CC3)O[C@@H]3O[C@@]4(C)CCC1[C@@]23OO4 (stereo partly shown)', '136 to 137 °C');

====

system: CQ-resistant P. falciparum FcB1 strain; assay: In vitro growth inhibition of P. falciparum FcB1 ([3H]-hypoxanthine incorporation); format: cell-based, Plasmodium falciparum; details: Plasmodium falciparum, FCB1, CQ-resistant FcB1; mean +/− standard deviation of independent experiments (at least four in Tables 1-2, at least three in Tables 3-4)
Labelling: IC50 reported below 10 nM becomes YES; at or above becomes NO.

INSERT INTO results (molecule, discretelabel) VALUES
  ('CCOC(=O)c1cn(CC)c2cc(N3CCN(C(=O)CCC(=O)O[C@@H]4O[C@@H]5O[C@@]6(C)CCC7[C@H](C)CCC([C@H]4C)[C@]75OO6)CC3)c(F)cc2c1=O (some centres unmarked)', 'YES'),
  ('C[C@@H]1CCC2[C@@H](C)[C@@H](CCC(=O)N3CCN(c4cc5c(cc4F)c(=O)c(C(=O)N4CCN(c6ccnc7cc(Cl)ccc67)CC4)cn5C4CC4)CC3)O[C@@H]3O[C@@]4(C)CCC1[C@@]23OO4 (some centres unmarked)', 'NO'),
  ('CCn1cc(C(=O)N2CCN(c3ccnc4cc(Cl)ccc34)CC2)c(=O)c2cc(F)c(N3CCNCC3)cc21', 'NO'),
  ('CCCCOC(=O)c1cn(CC)c2cc(N3CCN(C(=O)C[C@H]4O[C@@H]5O[C@@]6(C)CCC7[C@H](C)CCC([C@H]4C)[C@]75OO6)CC3)c(F)cc2c1=O (some centres unmarked)', 'NO'),
  ('CCn1cc(C(=O)N2CCN(c3ccnc4cc(Cl)ccc34)CC2)c(=O)c2cc(F)c(N3CCN(C(c4ccccc4)(c4ccccc4)c4ccccc4)CC3)cc21', 'NO');
